Values were extracted from PubChem BioAssay (NCI).

Experiment: NCI Yeast Anticancer Drug Screen. Data for the sgs1 mgt1 strain (AID 161);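 also: 0% = growth of cultures given vehicle only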
Conditions: S. cerevisiae sgs1 mgt1 strain, at 50.0 µM, hits give high values
About 79,000 compounds went through this panel and 15% of them were active in at least one assay; those are over-represented in the sample as a whole.
recorded endpoint: growth inhibition (%)
Response body: numeric value in %, unit text excluded.

Known growth inhibition results, listed for orientation:
compound | recorded endpoint | unit descriptor | observed result
CN(C)c1ccc(/C=N/NC=O)c(Cl)c1 | growth inhibition | % | -0.6
CC(=O)c1c(C)cc2cccc(OC3OC(CO)C(O)C(O)C3O)c2c1O (centres undefined) (tested in a mixture with another compound) | growth inhibition | % | -18.6
CC(CC(=O)O)C1(C)C2CCCCC2C2CCCCC21 (centres undefined) | growth inhibition | % | 5.75
O=C(O)COc1c(Cl)cc(Cl)c2cccnc12 | growth inhibition | % | -15.7
Cc1nc(N)nc2ccccc12 | growth inhibition | % | -16
NC(=O)NC(=O)c1ccco1 | growth inhibition | % | 28.9
O=C(O)CCC(C(=O)O)N1C(=O)C2C3CCC(C3)C2C1=O (centres undefined) | growth inhibition | % | -36.2
COC(=O)C(CC12CC3CC(CC(C3)C1)C2)NC(=O)C(N)CC(=O)O (centres undefined) | growth inhibition | % | -23.8

Now consider the entry below.
Ask: Which growth inhibition value is on record for CCCCCCCCN1N=C(C)CCC1=O ?
Result: -0.45

* * *

growth inhibition listing for selected molecules.
Experiment: NCI Yeast Anticancer Drug Screen. Data for the cln2 rad14 strain (AID 165);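 also: 0% = growth equal to vehicle treated cultures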
Details: S. cerevisiae cln2 rad14 strain, at 50.0 µM, hits give high values
The panel holds about 79,000 compounds, 15% with a hit somewhere; the sample as a whole holds those more often.
Kindly provide the numeric value in % only, without the unit symbol.

molecule | unit descriptor | growth inhibition
CCOC(=O)c1cccc(Cl)c1C(=O)O | % | -29.5
CCOC(=O)C(c1ccc(C)cc1)C(Cl)(Cl)Cl (stereo unspecified) | % | -1.05

Ask: What value of growth inhibition has been reported for the following molecule? COc1cc2oc(=O)ccc2cc1[C@@H]1OC(=O)[C@@]2(C)O[C@@H]12
Result: -35.7

Ask: What growth inhibition value was documented for this molecule, CC(=O)OCC1OC(Sc2ccc([N+](=O)[O-])cc2)C(OC(C)=O)C(OC(C)=O)C1OC(C)=O (stereo unspecified) ?
Result: -1.35

Ask: Value lookup for growth inhibition; key = COc1ccc(NC(=O)/C(Cc2cc(=O)oc3cc(O)ccc23)=N\NC(C)(C)C)c(OC)c1
Result: 4

Ask: // returns reported growth inhibition for input Cc1cc(=O)[nH]c(=O)[nH]1
Result: -4.15

* * *

Assay: NCI Yeast Anticancer Drug Screen. Data for the rad50 strain (AID 155);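 also: 0% = growth of vehicle-only cultures of the same strain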
Details: S. cerevisiae rad50 strain growth inhibition; at 50.0 µM; hits give high values
About 79,000 compounds went through this panel and 15% of them were active in at least one assay; those are over-represented in the sample as a whole. The source made the active and inactive calls. Rule as the data show it: active = growth inhibition above about 70%; inactive = the rest.
recorded endpoint: growth inhibition

Field: example entries. Status: answers known.
compound | growth inhibition
CCOC(=O)c1c(-c2ccc(OC)cc2)c(C#N)c(=S)n(C2OC(COC(C)=O)C(OC(C)=O)C(OC(C)=O)C2OC(C)=O)c1-c1ccccc1 (configuration not stated) | -4.6% (inactive)
CCO/C=C\C(OCC)OCC | 3.55% (inactive)
O=C(Nc1ccc(Cl)cc1Cl)C1C(=O)C(=O)N(c2ccc(Cl)cc2Cl)C1=O (configuration not stated) | 10.8% (inactive)
O=C1OCCC1=P(c1ccccc1)(c1ccccc1)c1ccccc1 | -5.6% (inactive)
COc1c(O)c2ccccc2c2cc(O)ccc12 | 6.8% (inactive)

Ask: Name the recorded growth inhibition for CN(CC(=O)O)c1ncc2c(n1)-c1ccccc1SC2 .
Result: 20.5% (inactive)

* * *

Parameter growth inhibition: see the listing below.
Experiment: NCI Yeast Anticancer Drug Screen. Data for the mec2-1 strain (AID 157)
Details: S. cerevisiae mec2-1 strain, at 50.0 µM, hits give high values
Compounds without any hit were thinned out: in the full panel of roughly 79,000, 15% have a hit.
Enter your answer as a number in %; do not include the unit.

molecule | unit descriptor | growth inhibition
c1ccc(-c2c(-c3cccs3)[nH]c(-c3cccs3)c2-c2ccccn2)nc1 | % | 17.1

Ask: Recorded growth inhibition for NC(CCS(N)(=O)=O)C(=O)O (centres undefined) , please?
Result: -5.3

Ask: Suppose we examine the molecule CCOC(=O)C1(Cc2ccccc2)Cc2ccccc2C1=O (centres undefined) ; what growth inhibition value has been reported?
Result: 29.9

Ask: What does the data say about its growth inhibition? Entry: COC(=O)CC1CSCC1=O (centres undefined)
Result: 22.1

* * *

Experiment: NCI Yeast Anticancer Drug Screen. Data for the cln2 rad14 strain (AID 165);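 also: 0% = growth equal to vehicle treated cultures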
Settings: S. cerevisiae cln2 rad14 strain, at 50.0 µM, hits give high values
About 79,000 compounds went through this panel and 15% of them were active in at least one assay; those are over-represented in the sample as a whole.
Listed here are compounds together with their documented growth inhibition.
Dear colleague, please return just the value in %, with no unit written.

compound | unit descriptor | growth inhibition
CC(C)=C1C(=O)N(C)C(=O)C1C(N)=O (configuration not stated) | % | -6.05
CCOC(=O)/C(C#N)=C(O)/C(=C\c1ccc(Br)cc1)NC(=O)c1ccccc1 | % | 13.2
CCN(CC)C(=O)C1C(C=C(C)C)C1(C)C (configuration not stated) | % | 5.3
COc1ccc(-n2nc3c(ccc4ccccc43)c2N)cc1 | % | -2.05
Cc1cc(Cl)cc2c1NC(=O)C2(O)CC(=O)c1ccco1 (configuration not stated) | % | 9.65
O=C1OC(c2ccccc2)=N/C1=C\c1cccc2ccccc12 | % | 0.35
CC(C)=NNC(=O)Nc1cccc(C)c1C | % | -47.3
CCN1C(=O)N(C)C(O)c2c1nc1ccccn1c2=O (configuration not stated) | % | 3.65
CCN(CC)Cc1cc(OC(=O)c2cc(OC)c(OC)c(OC)c2)cc(C(=O)OC)c1 | % | -32
CC1CC(N2CSC(=S)N(C3CC(C)CC(C)(C)C3)C2)CC(C)(C)C1 (configuration not stated) | % | 9.5

Ask: Look up growth inhibition: CC1=COC2(CC1)OC1CC3C4CCC5CC(O)CCC5(C)C4CCC3(C)C1C2C (configuration not stated)
Result: 45.5

Ask: Can you look up the measured growth inhibition of NC(C(=O)O)C1C=CCCC1 (configuration not stated) for me?
Result: -57.3

* * *

Experiment: NCI Yeast Anticancer Drug Screen. Data for the mec2-1 strain (AID 157)
Conditions: S. cerevisiae mec2-1 strain, at 50.0 µM, hits give high values
This is part of a sample that, as a whole, favours compounds with a hit. Of some 79,000 tested, about 15% had one in any assay.
# key: entry, value: growth inhibition
Lab book: enter the figure in %, no units written.

Example results:
compound | growth inhibition / %
CCOC(=O)CC1(O)Oc2cc3c(cc2C(c2cc(OC)c(OC)c(OC)c2)C1C(=O)OCC)OCO3 (stereo not drawn) | -5.9
CCOC(=O)Cc1nc2sc3c(c2c(=O)[nH]1)CCCC3 | 1.8
COC(=O)N1c2ccccc2N(C(=O)OC)c2c1oc1ccccc1c2=O | 12.6
NC(=S)N/N=C1/CC(=O)N(c2ccccc2)C1c1ccccc1 (stereo not drawn) | 13.2
CC(C)/C(Cl)=N\OC(=O)Nc1ccc(C#N)cc1 | 52

Ask: Can you share its growth inhibition? I mean this compound: CC[N+](C)(C)CC(O)(O)C(F)F
Result: -32.7

Ask: For the compound shown here, CCOc1ccc(N=C=S)cc1 , give the reported growth inhibition.
Result: -3.05

Ask: Endpoint output: growth inhibition of Cc1cc(Oc2cnc(=O)[nH]c2)cs1 . Value?
Result: 22.4

Ask: Consider the compound shown here: O=C(NO)Nc1ccc(Cl)cc1 What is its recorded growth inhibition?
Result: 8.7

Ask: Query: growth inhibition; subject: CC(C)CNC(=S)N/N=C/C=C/c1ccc(C(C)C)cc1
Result: -12.7

Ask: Which growth inhibition value is on record for CCOC(=O)c1c(NC2=NCCC2)n[nH]c1N ?
Result: 14.8

Ask: May I ask what growth inhibition has been recorded for COc1ccc(NC(=O)CN)cc1 ?
Result: -9.9

Ask: Quick one: growth inhibition for CCOC(=O)/C=C/c1nc(C(=O)OCC)c(C)c(=O)[nH]1 ?
Result: 8.3

* * *

Assay: NCI Yeast Anticancer Drug Screen. Data for the mec2-1 strain (AID 157)
Settings: S. cerevisiae mec2-1 strain, at 50.0 µM, hits give high values
Protocol: Growth inhibition of yeast strains with defined genetic alterations is measured as a screen for potential anti-cancer activity. Selected strains with alterations in DNA damage repair or cell cycle control were exposed to compounds and growth inhibition was measured relative to vehicle treated controls. The strain used in this assay is mec2-1
This is part of a sample that, as a whole, favours compounds with a hit. Of some 79,000 tested, about 15% had one in any assay.
recorded endpoint: growth inhibition (%)
Could you give me the number in %? Just the number is fine.

Before answering, review these 4 worked examples.
molecule | unit descriptor | growth inhibition
CC(=O)OCCOCNC(=S)N/N=C/c1ccc([N+](=O)[O-])s1 | % | -5.2
CCSC(COC(C)=O)(SCC)C(OC(C)=O)C(OC(C)=O)C(COC(C)=O)OC(C)=O (stereo not given) | % | 6.55
CCOC(=O)C1=NN(c2ccccc2)C(=O)/C1=C\N1C(=S)NC(=O)/C1=C\c1cccc([N+](=O)[O-])c1 | % | -11.6
CCCCn1c(=O)cc(C(=O)O)c2ccccc21 | % | -12.7

Please find the next molecule below.
Ask: Suppose we examine the molecule CS(=O)(=O)OC1C(O)C(O)OC(CO)C1O (stereo not given) ; what growth inhibition value has been reported?
Result: 12.9
